Below, each of the compounds is paired with its reported Ke value.
# target: Mu-type opioid receptor (Cavia porcellus)
# assay summary: Affinity towards mu opioid receptor using CTAP as antagonist in guinea pig ileum
# Assay type: functional, tissue-based
// return the numeric value with its unit appended

Completed entries (count: 3):
Challenge: Name the reported Ke value associated with the compound "Cc1cccc(C)c1C[C@H](NC(=O)[C@@H](CCCN=C(N)N)NC(=O)[C@@H](N)Cc1c(C)cccc1C)C(=O)NCCC(N)=O"
Response given: 21.3 nM

Challenge: Name the reported Ke value associated with the compound "NC(=O)CCNC(=O)[C@H](Cc1ccccc1)NC(=O)[C@@H](CCCN=C(N)N)NC(=O)[C@@H](N)Cc1ccc(O)cc1"
Response given: 26.8 nM

Challenge: Name the reported Ke value associated with the compound "Cc1cccc(C)c1C[C@H](NC(=O)[C@@H](CCCN=C(N)N)NC(=O)[C@@H](N)Cc1ccc(O)cc1)C(=O)NCCC(N)=O"
Response given: 22.7 nM

Continuing:
Challenge: Name the reported Ke value associated with the compound "Cc1cccc(C)c1C[C@H](N)C(=O)N[C@H](CCCN=C(N)N)C(=O)N[C@@H](Cc1ccccc1)C(=O)NCCC(N)=O"
Response given: 25.1 nM
